Measured IC50, listed per entry.
System: BaF3 wild-type cells
Test: Cellular screening, BaF3 wild-type cells, Alamar Blue
Type: cell-based
Conditions: Mus musculus, 40 hr, read-out: BAF3wt IC50_nM

c1cc(Sc2ccc(Cn3cnnn3)cc2)nc(Nc2ccc(N3CCOCC3)cc2)n1; < 20 µM
Cc1cnc(Nc2ccc(N3CCOCC3)cc2)nc1Sc1ccc2c(c1)CCCN2; < 20 µM
Cc1cc(N)ccc1Sc1nc(Nc2ccc(N3CCOCC3)cc2)ncc1C; < 20 µM
C=CC(=O)Nc1ccc(Sc2nc(Nc3ccc(OCCN4CCOCC4)cc3)ncc2C)cc1; < 5 µM

Query: Quickly give me recorded IC50 for Cc1cnc(Nc2ccc(N3CCN(C)CC3)cc2)nc1Sc1ccc(N)cc1
Response: < 5 µM

Query: Quickly give me recorded IC50 for C=CC(=O)Nc1ccc(Sc2nc(Nc3ccc(OCCCN(CC)CC)cc3)ncc2C)cc1
Response: < 5 µM

Query: Specify IC50 for Nc1ccc(Sc2nc(Nc3ccc(N4CCOCC4)cc3)ncc2F)cc1 and stop.
Response: < 5 µM

Query: Given the compound Cc1cnc(Nc2cccc(N3CCN(C)CC3)c2)nc1Sc1ccc(N)cc1 , write its reported IC50.
Response: < 1 µM

Query: Supply recorded IC50 for N#Cc1ncn(Cc2ccc(Sc3ccnc(Nc4ccc(N5CCOCC5)cc4)n3)cc2)c1N here.
Response: < 20 µM

----------
Test system: BaF3 wild-type cells
Experiment: Cellular screening, BaF3 wild-type cells, Alamar Blue
Type: cell-based
Conditions: Mus musculus, 40 hr, read-out: BAF3wt IC50_nM
pIC50: −log10 of the molar value.
RECORDED METRIC: pIC50

Consider the worked cases shown below.
Cc1cnc(Nc2ccc(N3CCOCC3)cc2)nc1Sc1ccc(CO)cc1; > 5.30
CC#CC(=O)Nc1ccc(Sc2nc(Nc3ccc(N4CCOCC4)cc3)ncc2C)cc1; < 4.70
Nc1ccc(Sc2nc(Nc3ccc(N4CCOCC4)cc3)ncc2I)cc1; > 5.30

Query: Return the recorded pIC50 value; entry: C=CC(=O)Nc1ccc(Sc2nc(Nc3ccc(N4CCOCC4)nc3)ncc2C)cc1
Response: > 5.30

Query: Identify pIC50 associated with the molecule C=CC(=O)Nc1ccc(Sc2nc(Nc3ccc(N4CCOCC4)cc3)ncc2C)cc1
Response: < 4.70

Query: Assign pIC50 to the following record: C=CC(=O)Nc1ccc(Sc2nc(Nc3ccc(OC)c(O)c3)ncc2C)cc1
Response: > 4.70

Query: Please look at this molecule and report its pIC50: Cc1cnc(Nc2ccc(N3CCOCC3)cc2)nc1Sc1ccc(N)nc1
Response: < 4.70

Query: Answer with the recorded pIC50 for the molecule listed here: CCC(=O)Nc1ccc(Sc2nc(Nc3ccc(N4CCOCC4)cc3)ncc2Cl)cc1
Response: < 4.70

Query: State its pIC50 for this molecule: C=CC(=O)Nc1ccc(Sc2nc(Nc3ccc(N4CCOCC4)c(OC)c3)ncc2C)cc1
Response: > 5.30

Query: Give reported pIC50 value for C=CC(=O)Nc1ccc(Sc2nc(Nc3ccc(N4CCC(CO)CC4)cc3)ncc2Br)cc1
Response: < 4.70

Query: Note pIC50 for the molecule shown: C=CC(=O)Nc1ccc(Sc2ccnc(Nc3ccccc3)n2)cc1
Response: < 4.70

Query: Indicate the recorded pIC50 value for this molecule: Cc1cnc(Nc2ccc(N3CCOCC3)cc2)nc1Sc1ccc(N2C(=O)COCC2=O)cc1
Response: < 4.70

Query: Note pIC50 for the molecule shown: C=CC(=O)Nc1ccc(Sc2ccnc(Nc3ccc(N4CCC(N5CCCC5)CC4)cc3)n2)cc1
Response: > 5.30

Query: Report pIC50 for C=CC(=O)Nc1ccc(Sc2ccnc(Nc3ccc(S(N)(=O)=O)cc3)n2)cc1
Response: < 4.70

Query: Return reported pIC50. Input molecule: C=CC(=O)N(C)c1ccc(Sc2nc(Nc3ccc(N4CCOCC4)cc3)ncc2Br)cc1
Response: < 4.70

Query: Identify measured pIC50 corresponding to C=CC(=O)Nc1ccc(Sc2ccnc(Nc3ccc(S(N)(=O)=O)c(OC)c3)n2)cc1
Response: > 5.30

Query: Answer with the recorded pIC50 for the molecule listed here: C=CC(=O)Nc1ccc(Sc2nc(Nc3ccc(N4CCC(O)C4)cc3)ncc2C)cc1 (centres unmarked)
Response: < 4.70
